tgt: α6β3γ2 GABAA/BzR (Homo sapiens, UniProt P18507+Q16445)
assay.notes: Competition binding to HEK cell membranes, α6β3γ2
Parameters: expressed in transfected cells
experimental.parameters: read-out: Ki α6
assay.readout: Ki (µM)
Use µM as the unit, but write only the number.

In the examples that follow, each entry is paired with its recorded Ki.
• CC(C)(C)OC(=O)c1ncn2c1C1CCCN1C(=O)c1cc(Br)ccc1-2 (stereo not drawn) = 0.00288
• CCC(OC(=O)c1ncn2c1C1CCCN1C(=O)c1cc(Br)ccc1-2)C(F)(F)F (mixture of isomers) [CM-B34] = 0.175
• Fc1ccc2c(c1)[nH]c1c2ncc2[nH]c3ccccc3c21 = 10
• C#Cc1ccc2c(c1)C(c1ccccc1)=NCC(NC)=N2 = 5
• O=C(OCC(F)(F)F)c1ncn2c1C1CCCN1C(=O)c1cc(-c3ccco3)ccc1-2 (stereo not drawn) = 0.00838

Data request: Look at this molecule and give its reported Ki. C#Cc1ccc2c(c1)C(c1ccccc1F)=NCC(=O)N2 [JYI-60 (C17H11N2OF)]
Data returned: 5

Data request: Request: "Oc1ccc2c(c1)[nH]c1c2ncc2[nH]c3ccccc3c21"
Data returned: 1

Data request: Request: "CCOC(=O)c1cc2c(cn1)[nH]c1ccc(I)cc12"
Data returned: 1

Data request: Request: CCC(OC(=O)c1ncn2c1C1CCCN1C(=O)c1cc(Cl)ccc1-2)C(F)(F)F (mixture of isomers)
Data returned: 0.23

----------
tgt: α3β3γ2 GABAA/BzR (Homo sapiens, UniProt P18507+P34903)
assay.notes: Competition binding to HEK cell membranes, α3β3γ2
Design: expressed in transfected cells
experimental.parameters: Figure 5; read-out: Ki α3
Consider the following compounds and their measured pKi readings.
Scale note: pKi = -log10(concentration in M).

In the examples that follow, each entry is paired with its recorded pKi.
- CCc1ccc2c(c1)C(=O)N(C)Cc1c(C(=O)OCCCOC(=O)c3ncn4c3CN(C)C(=O)c3cc(CC)ccc3-4)ncn1-2: 5.07
- CCOC(=O)c1ncoc1-c1ncn2c1C1CCN1C(=O)c1cc(C#C[Si](C)(C)C)ccc1-2 (stereo not shown): 6.30

Data request: Look at this compound and give its reported pKi. C#Cc1ccc2c(c1)C(=O)N1CCC1c1c(-c3ocnc3C(=O)OCC)ncn1-2 (stereo not shown)
Data returned: 6.30

----------
tgt: α2β3γ2 GABAA/BzR (Homo sapiens, UniProt P18507+P47869)
assay.notes: Competition binding to HEK cell membranes, α2β3γ2
Parameters: expressed in transfected cells
experimental.parameters: read-out: Ki α2
pKi: −log10 of the molar value.
Answer Condition not met if pKi is under 9, and Condition met if it is 9 or more.

As a guide, the following entries are already answered.
• O=C1CN=C(c2ccccc2F)c2cc(Br)ccc2N1 = Condition met
• CCC(OC(=O)c1ncn2c1C1CCCN1C(=O)c1cc(Br)ccc1-2)C(F)(F)F (centres unmarked) [MMB-II-87] = Condition not met

Data request: Decide: is the reported value of pKi for "CCOC(=O)c1ncc2[nH]c3cc(OC)c(OC)cc3c2c1CC" equal to or greater than 9?
Data returned: Condition not met

----------
tgt: α1β2γ2 GABAA receptor (Homo sapiens, UniProt P14867+P18507)
assay.notes: Radioligand binding (McKernan and Atack), α1β2γ2
experimental.parameters: Table 3; αxβ2γ2; means of two determinations; read-out: Binding affinity α1
Consider the following compounds and their measured Ki readings.
Use µM as the unit, but write only the number.

- C#Cc1ccc2c(c1)C(c1ccccc1)=N[C@H](C)c1c(C(=O)OCC)ncn1-2: 2.03

Could you now look at the following compound, please?
Data request: Look at this compound and give its reported Ki. "C#Cc1ccc2c(c1)C(c1ccccc1)=N[C@@H](C)c1c(C(=O)OCC)ncn1-2"
Data returned: 1.67
